System: OCI-AML3 (N-Ras Q61L)
PROCEDURE SUMMARY: Proliferation inhibitory activity, OCI-AML3
Assay type: cell-based
MEASUREMENT PARAMETERS: Homo sapiens, OCI-AML-3; OCI-AML3 (N-Ras Q61L) cell line; read-out: Proliferation inhibitory efficacy (GI50, μM) OCI-AML3 (N-Ras Q61L)
Quick reference: GI50 of the listed items.

# count of solved cases: 3
{"STRUCTURE AS SMILES": "CCN1CCN(c2ccc(Nc3ncc4c(n3)N(C)C(=O)N(c3cc(NC(=O)Nc5ccccc5OC)ccc3C)C4)cn2)CC1", "MEASURED ON": "OCI-AML3 (N-Ras Q61L)", "GI50": "< 0.5 µM"}
{"STRUCTURE AS SMILES": "Cc1ccc(Nc2ncc3c(n2)N(C)C(=O)N(c2cc(NC(=O)Nc4cccc(C(F)(F)F)c4)ccc2C)C3)cn1", "MEASURED ON": "OCI-AML3 (N-Ras Q61L)", "GI50": "0.5 to 3 µM"}
{"STRUCTURE AS SMILES": "Cc1ccc(Nc2ncc3c(n2)N(C)C(=O)N(c2cc(NC(=O)Nc4ccc(Cl)c(C(F)(F)F)c4)ccc2C)C3)cn1", "MEASURED ON": "OCI-AML3 (N-Ras Q61L)", "GI50": "< 0.5 µM"}

Turning to the following compound.
Input: Provide one value: measured GI50 of "Cc1ccc(Nc2ncc3c(n2)N(C)C(=O)N(c2cc(NC(=O)Nc4ccccc4C)ccc2C)C3)cn1"
Output: 0.5 to 3 µM
